assayExplanation: In vitro hepatic clearance by human liver S9 (compound depletion)
Type: in vitro ADME
particulars: human, s9, pH 7.4, CLint app corrected for unspecific protein (HLS9) binding; read-out: In vitro CLint,u
readoutKind: microsomal CLint at 1 µM (µL/min/mg)
Lab book: enter the figure in µL/min/mg, no units written.

Task: Specify microsomal CLint at 1 µM for "CN(C)CCc1ccc(O)cc1" and stop.
Result: 2.53

Task: Indicate the recorded microsomal CLint at 1 µM value for this compound: "NCCc1ccccc1"
Result: 243

Task: Identify measured microsomal CLint at 1 µM corresponding to CC(C)NCC(O)c1ccc(O)cc1 (centres unmarked)
Result: 2.56

Task: Output microsomal CLint at 1 µM of CC(CN)c1ccccc1 (centres unmarked)
Result: 13

Task: Answer with the recorded microsomal CLint at 1 µM of "NCCc1ccc(O)cc1" only.
Result: 78.8

Task: Give the measured microsomal CLint at 1 µM for NCC(O)c1ccc(O)cc1 (centres unmarked)
Result: 7.06

Task: Look up and state reported microsomal CLint at 1 µM for CNC(C)C(O)c1ccc(O)cc1 (centres unmarked) [Methylsynephrine]
Result: 1.84

Task: Item Oc1ccc(CC2NCCc3cc(O)c(O)cc32)cc1 (centres unmarked) : provide microsomal CLint at 1 µM
Result: 24.4

Task: Using the record for "CN(C)CCc1ccccc1" , state its measured microsomal CLint at 1 µM.
Result: 23

Task: Note microsomal CLint at 1 µM for the compound shown: CNCC(O)c1ccccc1 (centres unmarked)
Result: 39

Task: Specify microsomal CLint at 1 µM for CNCC(O)c1ccc(O)cc1 (centres unmarked) [p-Synephrine, Synephrine] and stop.
Result: 13.1
